molecular target: T1, human MSLN-FL-his protein (human, UniProt Q13421 296-580); experiment: SPR (Biacore), antibody captured on Protein A chip;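 note: flow cell at 25 °C, antigen injected for 240 s at five concentrations from 200 nM downward, dissociation followed up to 600 s, double-referenced, fitted with Langmuir 1:1 model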
T1 construct: made in HEK293E cells, purified on nickel column; also called hMSLN-FL-his; human MSLN full-length protein; not shown: His tag
T1 sequence (Q13421 other isoform, or with tags, fused parts or gaps): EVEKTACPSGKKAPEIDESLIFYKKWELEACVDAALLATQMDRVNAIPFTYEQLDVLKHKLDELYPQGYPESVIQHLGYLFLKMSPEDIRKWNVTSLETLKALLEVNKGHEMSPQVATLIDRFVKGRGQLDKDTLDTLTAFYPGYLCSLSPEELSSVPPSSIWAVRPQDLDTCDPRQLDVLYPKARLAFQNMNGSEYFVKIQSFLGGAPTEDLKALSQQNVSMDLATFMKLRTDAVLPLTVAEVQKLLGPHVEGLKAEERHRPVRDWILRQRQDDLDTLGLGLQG
Overview of recorded koff for various binders
Numeric only. Scale: s⁻¹

S009-F7.6.17 (antibody, human IgG1, kappa, V domains shown, human-murine chimeric antibody, human IgG1/kappa constant regions) VH: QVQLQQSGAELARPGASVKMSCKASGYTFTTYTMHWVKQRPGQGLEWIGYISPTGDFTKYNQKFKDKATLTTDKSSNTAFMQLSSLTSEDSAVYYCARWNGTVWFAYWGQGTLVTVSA VL: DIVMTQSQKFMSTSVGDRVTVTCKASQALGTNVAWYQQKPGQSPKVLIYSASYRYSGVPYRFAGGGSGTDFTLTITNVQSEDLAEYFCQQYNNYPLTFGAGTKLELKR
0.000389
S009-F8-27.1 (antibody, human IgG1, kappa, V domains shown, human-murine chimeric antibody, human IgG1/kappa constant regions) VH: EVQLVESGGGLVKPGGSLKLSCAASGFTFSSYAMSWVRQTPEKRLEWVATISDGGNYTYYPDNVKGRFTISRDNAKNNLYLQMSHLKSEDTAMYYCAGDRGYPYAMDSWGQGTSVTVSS VL: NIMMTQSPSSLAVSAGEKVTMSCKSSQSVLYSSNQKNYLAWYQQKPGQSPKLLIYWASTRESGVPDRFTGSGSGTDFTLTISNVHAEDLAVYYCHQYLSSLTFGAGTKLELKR
0.000234
S009-F7.23.19 (antibody, human IgG1, kappa, V domains shown, human-murine chimeric antibody, human IgG1/kappa constant regions) VH: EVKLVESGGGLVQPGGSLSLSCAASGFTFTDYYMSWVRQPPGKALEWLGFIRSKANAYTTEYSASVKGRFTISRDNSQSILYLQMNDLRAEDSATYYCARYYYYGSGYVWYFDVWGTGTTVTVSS VL: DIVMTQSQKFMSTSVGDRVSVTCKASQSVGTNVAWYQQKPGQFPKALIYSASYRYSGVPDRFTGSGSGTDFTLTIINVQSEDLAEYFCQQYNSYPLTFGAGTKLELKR
0.00695
S009-F7.67.12 (antibody, human IgG1, kappa, V domains shown, human-murine chimeric antibody, human IgG1/kappa constant regions) VH: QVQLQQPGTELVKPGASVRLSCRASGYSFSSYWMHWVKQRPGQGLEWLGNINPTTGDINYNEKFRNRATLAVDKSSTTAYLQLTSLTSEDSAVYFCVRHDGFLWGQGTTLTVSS VL: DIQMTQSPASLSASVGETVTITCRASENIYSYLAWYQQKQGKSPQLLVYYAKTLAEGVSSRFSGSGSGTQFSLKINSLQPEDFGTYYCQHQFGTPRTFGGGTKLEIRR
0.00065
S009-F7.61.21 (antibody, human IgG1, kappa, V domains shown, human-murine chimeric antibody, human IgG1/kappa constant regions) VH: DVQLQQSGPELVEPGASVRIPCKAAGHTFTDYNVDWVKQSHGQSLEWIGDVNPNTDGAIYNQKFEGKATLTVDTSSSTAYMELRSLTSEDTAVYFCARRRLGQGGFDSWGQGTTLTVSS VL: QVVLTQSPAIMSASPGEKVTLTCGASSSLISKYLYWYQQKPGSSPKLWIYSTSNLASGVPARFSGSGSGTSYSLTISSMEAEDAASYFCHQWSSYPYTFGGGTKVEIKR
0.00154
S009-F8-12.13 (antibody, human IgG1, kappa, V domains shown, human-murine chimeric antibody, human IgG1/kappa constant regions) VH: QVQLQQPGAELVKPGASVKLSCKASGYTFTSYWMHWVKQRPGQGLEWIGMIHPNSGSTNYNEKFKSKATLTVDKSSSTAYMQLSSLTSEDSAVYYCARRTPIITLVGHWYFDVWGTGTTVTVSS VL: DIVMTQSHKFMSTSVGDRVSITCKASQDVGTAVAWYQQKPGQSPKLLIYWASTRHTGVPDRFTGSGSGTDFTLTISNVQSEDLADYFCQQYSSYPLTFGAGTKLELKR
0.00296

In: What value of koff has been recorded for this entry: S009-F7.44.20 (antibody, human IgG1, kappa, V domains shown, human-murine chimeric antibody, human IgG1/kappa constant regions) VH: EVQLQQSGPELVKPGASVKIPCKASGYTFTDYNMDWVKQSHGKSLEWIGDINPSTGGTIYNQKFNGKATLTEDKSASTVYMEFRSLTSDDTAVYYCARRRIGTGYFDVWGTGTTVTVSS VL: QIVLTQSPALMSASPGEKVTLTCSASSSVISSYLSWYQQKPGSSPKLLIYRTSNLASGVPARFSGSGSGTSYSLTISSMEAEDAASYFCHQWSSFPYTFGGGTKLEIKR
Out: 0.00106

In: What value of koff has been recorded for this entry: S009-F7.26.15 (antibody, human IgG1, kappa, V domains shown, human-murine chimeric antibody, human IgG1/kappa constant regions) VH: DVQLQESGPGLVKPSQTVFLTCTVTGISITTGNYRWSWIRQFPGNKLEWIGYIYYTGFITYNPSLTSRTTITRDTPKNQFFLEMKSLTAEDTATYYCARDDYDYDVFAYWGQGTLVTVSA VL: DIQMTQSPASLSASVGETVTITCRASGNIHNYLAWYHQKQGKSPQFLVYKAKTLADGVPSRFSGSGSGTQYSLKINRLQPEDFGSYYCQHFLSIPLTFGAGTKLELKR
Out: 0.000975

In: What value of koff has been recorded for this entry: S009-F8-29.1 (antibody, human IgG1, kappa, V domains shown, human-murine chimeric antibody, human IgG1/kappa constant regions) VH: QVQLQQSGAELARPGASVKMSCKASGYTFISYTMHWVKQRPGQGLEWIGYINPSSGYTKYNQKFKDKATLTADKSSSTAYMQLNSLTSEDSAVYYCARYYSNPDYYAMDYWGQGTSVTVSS VL: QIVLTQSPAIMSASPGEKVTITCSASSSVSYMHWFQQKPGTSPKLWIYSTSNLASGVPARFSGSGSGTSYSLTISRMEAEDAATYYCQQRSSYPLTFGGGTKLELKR
Out: 0.0199

In: What value of koff has been recorded for this entry: S009-F8-7.5 (antibody, human IgG1, kappa, V domains shown, human-murine chimeric antibody, human IgG1/kappa constant regions) VH: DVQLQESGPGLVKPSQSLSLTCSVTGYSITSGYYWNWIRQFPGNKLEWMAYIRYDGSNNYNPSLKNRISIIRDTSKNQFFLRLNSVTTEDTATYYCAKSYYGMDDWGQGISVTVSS VL: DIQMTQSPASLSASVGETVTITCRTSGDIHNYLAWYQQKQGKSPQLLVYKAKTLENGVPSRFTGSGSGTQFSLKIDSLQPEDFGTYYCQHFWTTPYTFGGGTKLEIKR
Out: 0.0215
